- ASSAYED SYSTEM: Sodium-dependent serotonin transporter (Rattus norvegicus)
- Sequence (P31652 whole entry): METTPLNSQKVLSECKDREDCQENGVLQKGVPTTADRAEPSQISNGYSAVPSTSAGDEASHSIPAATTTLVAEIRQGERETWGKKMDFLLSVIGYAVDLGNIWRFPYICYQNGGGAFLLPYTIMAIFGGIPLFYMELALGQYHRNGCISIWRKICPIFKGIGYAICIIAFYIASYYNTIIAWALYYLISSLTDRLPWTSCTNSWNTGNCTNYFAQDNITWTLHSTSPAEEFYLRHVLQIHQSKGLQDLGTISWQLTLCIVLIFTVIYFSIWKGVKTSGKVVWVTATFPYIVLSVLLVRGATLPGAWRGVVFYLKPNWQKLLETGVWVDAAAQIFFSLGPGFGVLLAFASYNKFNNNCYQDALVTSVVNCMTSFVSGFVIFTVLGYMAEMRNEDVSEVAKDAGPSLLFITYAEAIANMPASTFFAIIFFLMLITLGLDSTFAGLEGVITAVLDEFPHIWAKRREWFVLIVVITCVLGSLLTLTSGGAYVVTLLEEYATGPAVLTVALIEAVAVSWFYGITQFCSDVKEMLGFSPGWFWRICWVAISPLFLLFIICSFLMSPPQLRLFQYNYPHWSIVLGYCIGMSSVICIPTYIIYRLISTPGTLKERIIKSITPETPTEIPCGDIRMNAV
- ASSAY REMARKS: Inhibition of [3H]5HT uptake in SERT in rat cerebral cortex
MEASURED QUANTITY: pKi
One number for each entry, as −log10 of the molar value.

Below, each entry is followed by its recorded pKi result.
- SMILES DATA: "O[C@@H](Cc1ccccc1)CN1CCN2C[C@@H]1CC[C@H]2C(c1ccccc1)c1ccccc1"
  ASSAYED SYSTEM: "Sodium-dependent serotonin transporter (Rattus norvegicus)"
  MEASURED QUANTITY: "pKi"
  ENDPOINT RESULT: 4.99
- SMILES DATA: "O[C@H](Cc1ccccc1)CN1CCN2C[C@@H]1CC[C@H]2C(c1ccccc1)c1ccccc1"
  ASSAYED SYSTEM: "Sodium-dependent serotonin transporter (Rattus norvegicus)"
  MEASURED QUANTITY: "pKi"
  ENDPOINT RESULT: 4.95
- SMILES DATA: "O[C@H](CCN1CCN2C[C@@H]1CC[C@H]2C(c1ccccc1)c1ccccc1)c1ccc(F)cc1"
  ASSAYED SYSTEM: "Sodium-dependent serotonin transporter (Rattus norvegicus)"
  MEASURED QUANTITY: "pKi"
  ENDPOINT RESULT: 4.93
- SMILES DATA: "O[C@@H](CN1CCN2C[C@@H]1CC[C@H]2C(c1ccccc1)c1ccccc1)c1ccc(F)cc1"
  ASSAYED SYSTEM: "Sodium-dependent serotonin transporter (Rattus norvegicus)"
  MEASURED QUANTITY: "pKi"
  ENDPOINT RESULT: 5.13
- SMILES DATA: "O[C@@H](CN1CCN2C[C@@H]1CC[C@H]2C(c1ccccc1)c1ccccc1)c1ccccc1"
  ASSAYED SYSTEM: "Sodium-dependent serotonin transporter (Rattus norvegicus)"
  MEASURED QUANTITY: "pKi"
  ENDPOINT RESULT: 4.89
- SMILES DATA: "O[C@@H](CCN1CCN2C[C@@H]1CC[C@H]2C(c1ccccc1)c1ccccc1)c1ccc(F)cc1"
  ASSAYED SYSTEM: "Sodium-dependent serotonin transporter (Rattus norvegicus)"
  MEASURED QUANTITY: "pKi"
  ENDPOINT RESULT: 5.83
- SMILES DATA: "O[C@H](CN1CCN2C[C@@H]1CC[C@H]2C(c1ccccc1)c1ccccc1)c1ccccc1"
  ASSAYED SYSTEM: "Sodium-dependent serotonin transporter (Rattus norvegicus)"
  MEASURED QUANTITY: "pKi"
  ENDPOINT RESULT: 5.02
- SMILES DATA: "O[C@H](CN[C@H]1CC[C@@H](C(c2ccccc2)c2ccccc2)NC1)Cc1ccccc1"
  ASSAYED SYSTEM: "Sodium-dependent serotonin transporter (Rattus norvegicus)"
  MEASURED QUANTITY: "pKi"
  ENDPOINT RESULT: 5.59
- SMILES DATA: "O[C@@H](CN[C@H]1CC[C@@H](C(c2ccccc2)c2ccccc2)NC1)c1ccc(F)cc1"
  ASSAYED SYSTEM: "Sodium-dependent serotonin transporter (Rattus norvegicus)"
  MEASURED QUANTITY: "pKi"
  ENDPOINT RESULT: 5.54
- SMILES DATA: "O[C@H](CN1CCN2C[C@@H]1CC[C@H]2C(c1ccccc1)c1ccccc1)c1ccc(F)cc1"
  ASSAYED SYSTEM: "Sodium-dependent serotonin transporter (Rattus norvegicus)"
  MEASURED QUANTITY: "pKi"
  ENDPOINT RESULT: 5.13

What does the record list as pKi for O[C@@H](CN[C@H]1CC[C@@H](C(c2ccccc2)c2ccccc2)NC1)Cc1ccccc1 ? 5.86
